# tested-system: human PTHR1 (R^0 conformation) (Homo sapiens)
# Construct: expressed in transfected cells; host or cells: COS-7 cells (transient transfection; membranes)
# Sequence (Q03431 27-593): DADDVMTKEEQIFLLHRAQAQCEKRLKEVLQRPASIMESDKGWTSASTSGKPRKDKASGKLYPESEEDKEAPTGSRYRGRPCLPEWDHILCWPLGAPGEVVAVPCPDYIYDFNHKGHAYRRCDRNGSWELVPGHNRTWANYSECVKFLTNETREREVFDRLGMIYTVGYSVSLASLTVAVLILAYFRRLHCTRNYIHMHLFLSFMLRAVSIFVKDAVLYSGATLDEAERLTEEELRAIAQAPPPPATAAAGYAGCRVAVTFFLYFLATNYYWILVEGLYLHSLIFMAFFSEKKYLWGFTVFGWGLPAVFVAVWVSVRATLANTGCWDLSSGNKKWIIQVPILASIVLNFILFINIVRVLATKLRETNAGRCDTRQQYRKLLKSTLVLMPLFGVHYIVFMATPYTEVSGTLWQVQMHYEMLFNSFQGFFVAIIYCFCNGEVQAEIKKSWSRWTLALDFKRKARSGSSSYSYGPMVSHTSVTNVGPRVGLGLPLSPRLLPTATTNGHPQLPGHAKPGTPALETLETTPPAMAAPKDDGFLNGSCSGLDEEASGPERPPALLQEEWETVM
# experiment-summary: Competition binding to the R^0 conformation of PTHR1
pIC50: −log10 of the molar value. Where no end group is shown, it is not given here.
parameter: pIC50

INSERT INTO results (ordered_residues, value_measured) VALUES
  ('AVAEIQLMHQRAKWLNSMERVEWLRKKLQDIHTAEI [M‐PTH(1‐30)/PTHrP(31‐36)]', 8.53),
  ('AVAEIQLMHQRAKWIQDLRRRFFLHHLIAEIHTAEI [M‐PTH(1‐14)/PTHrP(15‐36)]', 8.57);

(A) AVAEIQLMHQRAKWLNSMERVEWLRKLIAEIHTAEI [M‐PTH(1‐26)/PTHrP(27‐36)]
(B) AVAEIQLMHQRAKWLNSMERVEFLHHLIAEIHTAEI [M‐PTH(1‐22)/PTHrP(23‐36)]
Query: Please indicate which entry, A or B , has the lower recorded pIC50 value. Answer = label.
Response: B
(B: 8.11, A: 8.76)

Source listed as paper PMC7340446.
